This collection of values is drawn from patent US20250340557A1.

ASSAYED_SYSTEM: human mPGES-1 (Homo sapiens)
Construct: made in house; host or cells: COS-1 cells (transient transfection; microsomal fraction used as enzyme)
Sequence (O14684 whole entry): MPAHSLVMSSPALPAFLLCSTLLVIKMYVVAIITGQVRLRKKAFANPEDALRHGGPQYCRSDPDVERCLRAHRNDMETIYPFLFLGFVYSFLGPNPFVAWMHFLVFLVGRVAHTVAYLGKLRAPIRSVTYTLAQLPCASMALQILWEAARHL
EXPERIMENT_SUMMARY: Test for mPGES-1 inhibitory activity (microsomal enzyme, PGE2 EIA)
Format: biochemical
TEST_PARAMETERS: microsomes from COS-1 cells transfected with human mPGES-1 cDNA; substrate PGH2 1 μM; 4° C., 4 minutes; PGE2 measured by EIA; read-out: h mPGES1 IC50
Method: Test Example 1: Test for mPGES-1 Inhibitory Activity Microsomes were prepared from COS-1 cells transiently transfected with a plasmid containing human mPGES-1 cDNA, and used as mPGES-1 enzyme. […] Generated PGE2 (Prostaglandin E2) was measured by using Prostaglandin E2 Express EIA Kit (Cayman Chemical). IC50 values were determined by using a standard method.
Parameter: IC50. Scope: all listed entries.
Just the number please, in nM, no unit attached.

Worked examples, 2 compounds total:
COMPOUND	ASSAYED_SYSTEM	UNIT_ANNOTATION	RECORDED_MEASUREMENT
CCc1nc(-c2c(C(F)(F)F)ccc(CNC(=O)[C@H]3CC[C@H](OCc4ccc(F)cc4F)CC3)c2F)[nH]c(=O)c1F [Example 132]	human mPGES-1 (Homo sapiens)	nM	21
O=C(NCc1ccc(C(F)(F)F)c(-c2nc(C(F)(F)F)cc(=O)[nH]2)c1F)C1CCN(c2ccc(C(F)(F)F)cc2)CC1 [Example 63]	human mPGES-1 (Homo sapiens)	nM	1.1

Now examine the next entry.
Data point: Cc1cc(=O)[nH]c(-c2c(C(F)(F)F)ccc(CNC(=O)C3(F)CCN(c4ccc(C(F)(F)F)cn4)CC3)c2F)n1 [Example 56] ; IC50 = 21
